- Test system: Plasmodium berghei
- test summary: Screen against P. berghei liver stage (PbLuc), transformed with Luciferase, at 10uM
- Format: functional, HepG2
- conditions: tested at 10 uM
Out of some 69,000 compounds screened, about 8,600 (12%) showed an effect of 50% or more. For the sample, strong results were picked, then their nearest neighbours and some compounds at random.
Each item that follows carries a reported INHIBITION.
quantity name: INHIBITION (%)

{"structure smiles string": "CCC[C@H]1CN(S(=O)(=O)c2ccc(-c3c(C)noc3C)s2)C[C@@H]1N", "assayed system": "Plasmodium berghei", "endpoint result": 72.6}
{"structure smiles string": "CCc1ccc(S(=O)(=O)N2CC3(COC(C)(C)OC3)C2)s1", "assayed system": "Plasmodium berghei", "endpoint result": 42.7}
{"structure smiles string": "Cc1cc(C(=O)N2CCC(n3cc(CO)nn3)CC2)ccc1F", "assayed system": "Plasmodium berghei", "endpoint result": 39.3}
{"structure smiles string": "CCC[C@H]1CN(S(=O)(=O)c2cc(C)ccc2C)C[C@@H]1N", "assayed system": "Plasmodium berghei", "endpoint result": 57.2}
